measurement.description: in vivo
settings: mouse, po, p.o. LD50 mice, mice, Table 2
quantity.kind: LD50

Prompt: Specify reported LD50 for the molecule shown: CCOC(=O)C(C)(C)Oc1ccc(Cl)cc1 [Clofibrat, reference compound]
Response: 2000 to 25000 mg/kg

---

Test system: dietetic-medicamentous hyperlipemia of male rats
measurement.description: Action on the dietetic-medicamentous hyperlipemia of male rats
Type: in vivo
settings: Rattus norvegicus, po, 192 h; 100 mg/kg/day p.o., 8 days, male rats on cholesterol diet; read-out: serum cholesterol, change in percentage as compared to the control group
quantity.kind: change in vivo at 100 mg/kg (%)
Please state the figure in %; there is no need to write the unit.

Past entries and their recorded results:
CC(CCC(=O)O)(c1ccc(O)cc1)c1ccc(O)cc1 [Example 19, 4,4-Bis(4'-hydroxy-phenyl)pentanoic acid]
-17
CC(C)(C)c1cc(C(C)(CC(=O)O)c2ccc(O)c(C(C)(C)C)c2)ccc1O [Example 2]
-19

Then there is this compound:
Prompt: Name the recorded change in vivo at 100 mg/kg of the compound listed here: CC(C)(C)c1cc(C(C)(CCC(=O)OCCOC(=O)CCC(C)(c2ccc(O)c(C(C)(C)C)c2)c2ccc(O)c(C(C)(C)C)c2)c2ccc(O)c(C(C)(C)C)c2)ccc1O [Example 18]
Response: -36
